- Protocol Details: Fraction unbound in human plasma
- Assay type: ADME, cell-free
Reported Property: fraction unbound
Respond using a number only.

-- ask Any idea what its fraction unbound is? The molecule is O=C(Nc1cc(F)c(Br)cc1C(=O)O)c1ccc(SC(F)(F)F)cc1
-- reply 0.003

-- ask Any idea what its fraction unbound is? The molecule is O=C(Nc1ccccc1C(=O)O)c1ccc(SC(F)(F)F)cc1
-- reply 0.026

Shifting focus to the molecule that follows.
-- ask Any idea what its fraction unbound is? The molecule is O=C(Nc1ccc(Br)cc1C(=O)O)c1ccc(SC(F)(F)F)cc1
-- reply 0.003

----------
- System Tested: UniProtKB P57789
- Sequence (whole entry): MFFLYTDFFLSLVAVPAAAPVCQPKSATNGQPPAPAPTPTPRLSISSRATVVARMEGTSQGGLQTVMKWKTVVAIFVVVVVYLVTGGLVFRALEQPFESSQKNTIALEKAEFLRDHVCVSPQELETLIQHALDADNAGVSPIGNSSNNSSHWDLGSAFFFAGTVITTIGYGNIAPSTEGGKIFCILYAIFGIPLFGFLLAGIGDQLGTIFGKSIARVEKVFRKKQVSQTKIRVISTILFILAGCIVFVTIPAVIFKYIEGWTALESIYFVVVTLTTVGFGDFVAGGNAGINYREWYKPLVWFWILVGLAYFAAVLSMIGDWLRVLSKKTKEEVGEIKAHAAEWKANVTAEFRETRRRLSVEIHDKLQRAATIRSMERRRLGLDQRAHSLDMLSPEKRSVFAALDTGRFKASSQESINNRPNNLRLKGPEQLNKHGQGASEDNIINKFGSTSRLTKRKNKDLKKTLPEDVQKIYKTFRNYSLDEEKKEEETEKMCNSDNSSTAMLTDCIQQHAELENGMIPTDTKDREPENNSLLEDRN
- Protocol Details: Activation of human TREK2 at 30 uM by thallium flux mobilization assay relative to control
- Measurement Setup: filed as activator
Each record here notes measured Activity.
Numeric answer only, unit % assumed.

-- ask What reported Activity corresponds to O=C(Nc1sc(-c2ccccc2)cc1C(=O)O)c1ccc(SC(F)(F)F)cc1 on UniProtKB P57789?
-- reply 49

-- ask What reported Activity corresponds to O=C(Nc1ccc(F)cc1C(=O)O)c1ccc(SC(F)(F)F)cc1 on UniProtKB P57789?
-- reply 43

-- ask What reported Activity corresponds to O=C(Nc1ccc(OC(F)(F)F)cc1C(=O)O)c1ccc(SC(F)(F)F)cc1 on UniProtKB P57789?
-- reply 60

-- ask What reported Activity corresponds to c1ccc(-c2nnn[nH]2)c(Nc2cccc3c2CCCC3)c1 on UniProtKB P57789?
-- reply 133

-- ask What reported Activity corresponds to O=C(Nc1cc(F)c(Br)cc1C(=O)O)c1ccc(SC(F)(F)F)cc1 on UniProtKB P57789?
-- reply 84

-- ask What reported Activity corresponds to O=C(Nc1ccc(Cl)cc1C(=O)O)c1ccc(SC(F)(F)F)cc1 on UniProtKB P57789?
-- reply 76

-- ask What reported Activity corresponds to O=C(Nc1cc(Cl)ccc1C(=O)O)c1ccc(SC(F)(F)F)cc1 on UniProtKB P57789?
-- reply 73

Shifting focus to the compound that follows.
-- ask What reported Activity corresponds to O=C(Nc1ccc([N+](=O)[O-])cc1C(=O)O)c1ccc(SC(F)(F)F)cc1 on UniProtKB P57789?
-- reply 65
